# study_target: T1, affinity purified membrane derived caspase-3 from 697 cell heavy membranes (human, UniProt P42574 14-175; P42574 176-277, limits assumed)
# T1 chain 1: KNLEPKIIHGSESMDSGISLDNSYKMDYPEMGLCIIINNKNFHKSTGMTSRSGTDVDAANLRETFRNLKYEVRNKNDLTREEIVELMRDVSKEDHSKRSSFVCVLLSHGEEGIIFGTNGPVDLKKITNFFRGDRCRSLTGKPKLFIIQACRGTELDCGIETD
# T1 chain 2: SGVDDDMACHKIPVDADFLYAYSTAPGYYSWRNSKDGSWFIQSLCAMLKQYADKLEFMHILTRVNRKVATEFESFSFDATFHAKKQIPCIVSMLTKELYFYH
# test: cell-based or functional assay
Ends that are not written are not given here. * marks the point of attachment. Cbz = O=C(OCc1ccccc1)*
quantity_name: IC50, inhibition of DEVD-AMC cleavage activity (nM)

Cbz-Glu-Val-Asp-aldehyde (SMILES CC(C)[C@H](NC(=O)[C@H](CCC(=O)O)NC(=O)OCc1ccccc1)C(=O)N[C@H](C=O)CC(=O)O) [ZEVDald]	32

[A] VEID-aldehyde [VEIDald]
[B] DEVD-aldehyde [DEVD-ald]
[C] DFLD-aldehyde [DFLD-ald]
Query: Falling order of IC50, inhibition of DEVD-AMC cleavage activity, please. Sort and list the labels as requested.
Response: A, C, B

Data origin, for the record: patent US20020197702A1
